test system: Plasmodium berghei; experiment: Luciferase/luciferin-expressing antifolate-resistant parasites were used to infect a culture of HepG2 cells that were pre-incubated with compounds. Infected hepatocytes emit light due to the luciferase reaction. Assay results are presented as the percent inhibition of light emission compared to control. […]; assay type: functional; details: sporozoite, HEPG2TOX_HILL_SLOPE 13.3, HEPG2TOX_R_SQUARED 0.713, read-out: LUCIFERASE INFECTION ASSAY - IC50
value_type: IC50

Looking up "CCCN1C/C(=C/c2csnn2)C(=O)/C(=C/c2csnn2)C1" , I see its IC50 listed as > 10 µM

---

system: Plasmodium berghei; assay: Luciferase/luciferin-expressing antifolate-resistant parasites were used to infect a culture of HepG2 cells that were pre-incubated with compounds. Infected hepatocytes emit light due to the luciferase reaction. Assay results are presented as the percent inhibition of light emission compared to control. […]; format: functional; conditions: sporozoite, FFLUC_HILL_SLOPE 43.6, FFLUC_R_SQUARED 0.536, HEPG2TOX_HILL_SLOPE 2.45, HEPG2TOX_R_SQUARED 0.984, PBLUC_HILL_SLOPE 3.51, PBLUC_R_SQUARED 0.744, read-out: LUCIFERASE INFECTION ASSAY - IC50
value_type: pIC50
Numbers only, as −log10 of the molar value.

Looking up "N#C/C(=N\Nc1cc(C(F)(F)F)cc(C(F)(F)F)c1)S(=O)(=O)c1cccs1" , I see its pIC50 listed as 5.97

---

system: Plasmodium berghei; test: Luciferase/luciferin-expressing antifolate-resistant parasites were used to infect a culture of HepG2 cells that were pre-incubated with compounds. Infected hepatocytes emit light due to the luciferase reaction. Assay results are presented as the percent inhibition of light emission compared to control. […]; format: functional; details: sporozoite, PBLUC_HILL_SLOPE 11.2, PBLUC_R_SQUARED 0.357, read-out: LUCIFERASE INFECTION ASSAY - IC50
value_type: pIC50
Answers are plain numbers, as −log10 of the molar value.

Looking up "CSc1nc2ccccc2c(=O)n1-c1c(C)cccc1C" , I see its pIC50 listed as 4.98

---

test system: Plasmodium berghei; test: Luciferase/luciferin-expressing antifolate-resistant parasites were used to infect a culture of HepG2 cells that were pre-incubated with compounds. Infected hepatocytes emit light due to the luciferase reaction. Assay results are presented as the percent inhibition of light emission compared to control. […]; format: functional; settings: sporozoite, HEPG2TOX_HILL_SLOPE 0.648, HEPG2TOX_R_SQUARED 0.871, PBLUC_HILL_SLOPE 1.92, PBLUC_R_SQUARED 0.818, read-out: LUCIFERASE INFECTION ASSAY - IC50
value_type: IC50

Looking up CNc1snc(C)c1C(=O)NC(C)c1ccc(C(C)C)cc1 (stereo unspecified) , I see its IC50 listed as 930 nM

---

tested on: Plasmodium berghei; assay: Luciferase/luciferin-expressing antifolate-resistant parasites were used to infect a culture of HepG2 cells that were pre-incubated with compounds. Infected hepatocytes emit light due to the luciferase reaction. Assay results are presented as the percent inhibition of light emission compared to control. […]; assay type: functional; conditions: sporozoite, HEPG2TOX_HILL_SLOPE 2.7, HEPG2TOX_R_SQUARED 0.805, PBLUC_HILL_SLOPE 2.3, PBLUC_R_SQUARED 0.604, read-out: LUCIFERASE INFECTION ASSAY - IC50
value_type: pIC50
Answers are plain numbers, as −log10 of the molar value.

Looking up CC(C)c1ccc(C(Nc2ccc3nnnn3n2)c2cccs2)cc1 (stereo unspecified) , I see its pIC50 listed as 5.67

---

test system: Plasmodium berghei; test: Luciferase/luciferin-expressing antifolate-resistant parasites were used to infect a culture of HepG2 cells that were pre-incubated with compounds. Infected hepatocytes emit light due to the luciferase reaction. Assay results are presented as the percent inhibition of light emission compared to control. […]; assay type: functional; conditions: sporozoite, HEPG2TOX_HILL_SLOPE 15.4, HEPG2TOX_R_SQUARED 0.615, PBLUC_HILL_SLOPE 23, PBLUC_R_SQUARED 0.199, read-out: LUCIFERASE INFECTION ASSAY - IC50
value_type: pIC50
Numbers only, as −log10 of the molar value.

Looking up "CCOc1ccc(-c2cc(-c3ccc(S(C)(=O)=O)cc3)nc3c2cnn3C(C)C)cc1" , I see its pIC50 listed as 5.04

---

tested on: Plasmodium berghei; test: Luciferase/luciferin-expressing antifolate-resistant parasites were used to infect a culture of HepG2 cells that were pre-incubated with compounds. Infected hepatocytes emit light due to the luciferase reaction. Assay results are presented as the percent inhibition of light emission compared to control. […]; type: functional; settings: sporozoite, PBLUC_HILL_SLOPE 12, PBLUC_R_SQUARED 0.209, read-out: LUCIFERASE INFECTION ASSAY - IC50
value_type: IC50

Looking up "CN(C)CCNC(=O)c1ccc(-c2cn3c(-c4ccc5c(c4)OCO5)cnc3cn2)cc1" , I see its IC50 listed as > 7.68 µM

---

test system: Plasmodium berghei; assay: Luciferase/luciferin-expressing antifolate-resistant parasites were used to infect a culture of HepG2 cells that were pre-incubated with compounds. Infected hepatocytes emit light due to the luciferase reaction. Assay results are presented as the percent inhibition of light emission compared to control. […]; format: functional; conditions: sporozoite, HEPG2TOX_HILL_SLOPE 7.62, HEPG2TOX_R_SQUARED 0.882, PBLUC_HILL_SLOPE 15.6, PBLUC_R_SQUARED 0.562, read-out: LUCIFERASE INFECTION ASSAY - IC50
value_type: IC50 (nM)
One number for each entry, in nM.

Looking up NC(Cc1ccccc1)c1csc(Nc2ccc(C(=O)c3ccccc3)cc2)n1 (stereo unspecified) , I see its IC50 listed as 1000

---

tested on: Plasmodium berghei; assay: Luciferase/luciferin-expressing antifolate-resistant parasites were used to infect a culture of HepG2 cells that were pre-incubated with compounds. Infected hepatocytes emit light due to the luciferase reaction. Assay results are presented as the percent inhibition of light emission compared to control. […]; format: functional; details: sporozoite, HEPG2TOX_HILL_SLOPE 1.29, HEPG2TOX_R_SQUARED 0.956, PBLUC_HILL_SLOPE 8.73, PBLUC_R_SQUARED 0.385, read-out: LUCIFERASE INFECTION ASSAY - IC50
value_type: IC50 (nM)
Give bare numbers, in nM.

Reported Plasmodium berghei IC50 for item "COc1ccc(C(=O)COC(=O)Cc2cccc(C(F)(F)F)c2)cc1" was 1320

---

tested on: Plasmodium berghei; test: Luciferase/luciferin-expressing antifolate-resistant parasites were used to infect a culture of HepG2 cells that were pre-incubated with compounds. Infected hepatocytes emit light due to the luciferase reaction. Assay results are presented as the percent inhibition of light emission compared to control. […]; assay type: functional; details: sporozoite, HEPG2TOX_HILL_SLOPE 10.1, HEPG2TOX_R_SQUARED 0.28, PBLUC_HILL_SLOPE 16.2, PBLUC_R_SQUARED 0.242, read-out: LUCIFERASE INFECTION ASSAY - IC50
value_type: IC50 (µM)
One number for each entry, in µM.

Reported Plasmodium berghei IC50 for item "CCOc1ccc(-c2nc(CSc3nnc(-c4ccccc4OC)n3CC)cs2)cc1" was 9.09

---

tested on: Plasmodium berghei; experiment: Luciferase/luciferin-expressing antifolate-resistant parasites were used to infect a culture of HepG2 cells that were pre-incubated with compounds. Infected hepatocytes emit light due to the luciferase reaction. Assay results are presented as the percent inhibition of light emission compared to control. […]; format: functional; conditions: sporozoite, PBLUC_HILL_SLOPE 1.73, PBLUC_R_SQUARED 0.265, read-out: LUCIFERASE INFECTION ASSAY - IC50
pIC50: −log10 of the molar value.
value_type: pIC50

Looking up CCCc1nc2ccccc2n1CC(=O)N1N=C(c2ccc(Cl)cc2)CC1c1ccco1 (stereo unspecified) , I see its pIC50 listed as < 5.00

---

test system: Plasmodium berghei; test: Luciferase/luciferin-expressing antifolate-resistant parasites were used to infect a culture of HepG2 cells that were pre-incubated with compounds. Infected hepatocytes emit light due to the luciferase reaction. Assay results are presented as the percent inhibition of light emission compared to control. […]; assay type: functional; conditions: sporozoite, HEPG2TOX_HILL_SLOPE 1.83, HEPG2TOX_R_SQUARED 0.819, PBLUC_HILL_SLOPE 1.76, PBLUC_R_SQUARED 0.701, read-out: LUCIFERASE INFECTION ASSAY - IC50
value_type: pIC50
Numbers only, as −log10 of the molar value.

Looking up "O=C(C1CCC1)N1CCN(Cc2ccc(-c3ccc(Cl)cc3)s2)CC1" , I see its pIC50 listed as 5.38

---

tested on: Plasmodium berghei; test: Luciferase/luciferin-expressing antifolate-resistant parasites were used to infect a culture of HepG2 cells that were pre-incubated with compounds. Infected hepatocytes emit light due to the luciferase reaction. Assay results are presented as the percent inhibition of light emission compared to control. […]; type: functional; conditions: sporozoite, HEPG2TOX_HILL_SLOPE 7.45, HEPG2TOX_R_SQUARED 0.476, PBLUC_HILL_SLOPE 2.82, PBLUC_R_SQUARED 0.798, read-out: LUCIFERASE INFECTION ASSAY - IC50
value_type: pIC50
Answers are plain numbers, as −log10 of the molar value.

Looking up "O=C1N=C(Nc2cccnc2)S/C1=C/c1ccc2ncccc2c1" , I see its pIC50 listed as 5.36

src = ChEMBL document CHEMBL4483862
